assay: In vivo pharmacokinetics in mice after single oral dose, plasma levels by HPLC-MS/MS; settings: male, C57BL/6J, mouse, plasma, po, 30 mg/kg p.o., mean ± S.E.M., n = 4, read-out: maximal plasma concentration (Cmax)
reported-property: Cmax
Number first, unit second: that is the form wanted.

May I ask what Cmax has been recorded for C[C@H](CCC(=O)N[C@H](CC(=O)O)Cc1c[nH]c2ccccc12)[C@H]1CC[C@H]2[C@@H]3CCC4CC(=NO)CC[C@]4(C)[C@H]3CC[C@]12C (stereo partly shown) [UniPR500] ? 609 nM

---

test: In vivo pharmacokinetics in mice after single oral dose, plasma levels by HPLC-MS/MS; details: male, C57BL/6J, mouse, plasma, po, 30 mg/kg p.o., non-compartmental analysis
reported-property: AUC(0-t) (µM·h)
Give the value, in units of µM·h, as a plain number.

compound="C[C@H](CCC(=O)N[C@H](CC(=O)O)Cc1c[nH]c2ccccc12)[C@H]1CC[C@H]2[C@@H]3CCC4CC(=NO)CC[C@]4(C)[C@H]3CC[C@]12C (some centres unmarked)" reported_property=AUC(0-t) readout_number=1.75

From here, focus on the item given below.
May I ask what AUC(0-t) has been recorded for C[C@H](CCC(=O)N[C@H](CC(=O)O)Cc1c[nH]c2ccccc12)[C@H]1CC[C@H]2[C@@H]3CC[C@@H]4C[C@H](O)CC[C@]4(C)[C@H]3CC[C@]12C ? 0.0406

---

test: Phase II sulfonation stability in human liver S9 fraction (+PAPS); type: in vitro ADME; conditions: pH 7.4, human liver S9, 1 μM, read-out: in vitro t1/2, sulfonation
reported-property: half-life at 1 µM
Number first, unit second: that is the form wanted.

molecule="C[C@H](CCC(=O)N[C@H](CC(=O)O)Cc1c[nH]c2ccccc12)[C@H]1CC[C@H]2[C@@H]3CCC4CC(=NO)CC[C@]4(C)[C@H]3CC[C@]12C (some centres unmarked) [UniPR500]" result="58.6 min"

May I ask what half-life at 1 µM has been recorded for C[C@H](CCC(=O)N[C@H](CC(=O)O)Cc1c[nH]c2ccccc12)[C@H]1CC[C@H]2[C@@H]3CC[C@@H]4C[C@H](O)CC[C@]4(C)[C@H]3CC[C@]12C [UniPR129] ? 61.1 min

---

assay: Phase I metabolic stability in mouse liver microsomes (MLM) with NADPH-generating system; format: in vitro ADME; conditions: mouse, liver microsomes, pH 7.4; MLM, 1 μM, estimate from t1/2; read-out: phase I intrinsic clearance (CL'int)
reported-property: microsomal CLint at 1 µM (µL/min/mg)
Give the value, in units of µL/min/mg, as a plain number.

May I ask what microsomal CLint at 1 µM has been recorded for C[C@H](CCC(=O)N[C@H](CC(=O)O)Cc1c[nH]c2ccccc12)[C@H]1CC[C@H]2[C@@H]3CC[C@@H]4C[C@H](O)CC[C@]4(C)[C@H]3CC[C@]12C ? 41.4
